- Tested on: MKN-45
- experimental-protocol: Cytotoxicity against c-Met-dependent human MKN45 cells assessed as growth inhibition after 72 hrs by MTT assay
- assay-conditions: MKN-45, 72 h
Each record here notes measured log10 of IC50.
measured-parameter: log10 of IC50 (log10 of the value in nM)

>>> numeric_readout("COc1cc2c(Oc3ccc(NC(=O)c4nn(-c5ccccc5Cl)c5cc(F)ccc5c4=O)cc3F)ccnc2cc1OCCCN1CCCCC1")
3.21
>>> numeric_readout("COc1cc2c(Oc3ccc(NC(=O)c4nn(-c5cc(C)ccc5C)c5ccccc5c4=O)cc3F)ccnc2cc1OCCCN1CCOCC1")
1.48
>>> numeric_readout("COc1cc2c(Oc3ccc(NC(=O)c4nn(-c5ccccc5F)c5cc(F)ccc5c4=O)cc3F)ccnc2cc1OCCCN1CCCCC1")
3.45
>>> numeric_readout("COc1cc2c(Oc3ccc(NC(=O)c4nn(-c5ccccc5Cl)c5ccccc5c4=O)cc3F)ccnc2cc1OCCCN1CCCCC1")
1.70
>>> numeric_readout("COc1cc2c(Oc3ccc(NC(=O)c4nn(-c5cccc(C(F)(F)F)c5)c5ccccc5c4=O)cc3F)ccnc2cc1OCCCN1CCCCC1")
2.43
>>> numeric_readout("COc1cc2c(Oc3ccc(NC(=O)c4nn(-c5c(Cl)cccc5Cl)c5ccccc5c4=O)cc3F)ccnc2cc1OCCCN1CCCCC1")
2.59
>>> numeric_readout("COc1cc2c(Oc3ccc(NC(=O)c4nn(-c5ccc(Cl)cc5Cl)c5ccccc5c4=O)cc3F)ccnc2cc1OCCCN1CCCCC1")
2.77
